The following are reported Kd results, target or system UniProt:P55212.
Sequence (P55212 whole entry): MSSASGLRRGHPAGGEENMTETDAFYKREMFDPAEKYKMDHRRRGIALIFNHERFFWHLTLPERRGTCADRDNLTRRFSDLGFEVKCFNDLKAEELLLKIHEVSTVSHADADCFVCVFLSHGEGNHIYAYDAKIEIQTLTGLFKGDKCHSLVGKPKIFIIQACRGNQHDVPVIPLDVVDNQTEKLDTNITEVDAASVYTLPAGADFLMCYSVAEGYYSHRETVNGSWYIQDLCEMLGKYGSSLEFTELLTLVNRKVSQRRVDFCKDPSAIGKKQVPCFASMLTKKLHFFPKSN
Observable: Kd

{"Chem smiles": "c1cnnc(-c2cccnc2NCc2cccc3ccsc23)c1", "Observable": "Kd", "Result": "10 to 50 µM"}
{"Chem smiles": "Fc1ccc(CNc2ncccc2-c2ccccn2)c2sccc12", "Observable": "Kd", "Result": "50 to 100 µM"}
{"Chem smiles": "c1cnc(NCc2cccc3cnoc23)c(-c2ncc[nH]2)c1", "Observable": "Kd", "Result": "10 to 50 µM"}
{"Chem smiles": "Fc1ccc(CNc2ncccc2-c2ccccn2)c2occc12", "Observable": "Kd", "Result": "50 to 100 µM"}
{"Chem smiles": "Fc1ccc(CNc2ncccc2-c2cccnn2)c2[nH]ncc12", "Observable": "Kd", "Result": "< 10 µM"}
{"Chem smiles": "c1ccc(-c2cccnc2NCc2cccc3scnc23)nc1", "Observable": "Kd", "Result": "50 to 100 µM"}
{"Chem smiles": "c1cnc(NCc2cccc3cn[nH]c23)c(-c2ncc[nH]2)c1", "Observable": "Kd", "Result": "10 to 50 µM"}
{"Chem smiles": "c1ccc(-c2cccnc2NCc2cccc3cn[nH]c23)nc1", "Observable": "Kd", "Result": "50 to 100 µM"}
{"Chem smiles": "Fc1ccc(CNc2ncccc2-c2cccnn2)c2ncsc12", "Observable": "Kd", "Result": "< 10 µM"}
{"Chem smiles": "c1cnc(NCc2cccc3ccoc23)c(-c2ncc[nH]2)c1", "Observable": "Kd", "Result": "50 to 100 µM"}
{"Chem smiles": "c1cnc(NCc2cccc3ocnc23)c(-c2ncc[nH]2)c1", "Observable": "Kd", "Result": "50 to 100 µM"}
{"Chem smiles": "c1cnnc(-c2cccnc2NCc2cccc3cnoc23)c1", "Observable": "Kd", "Result": "50 to 100 µM"}
{"Chem smiles": "c1cnnc(-c2cccnc2NCc2cccc3ccoc23)c1", "Observable": "Kd", "Result": "10 to 50 µM"}

Ref: patent US20260200893A1
